- experiment: Drug uptake in wild type CF1 mouse brain at 30 mg/kg, po after 4 hrs
- Type: ADME, organism-based
- Design: dose 30 mg/kg, route oral
- experimental-conditions: read-out: Drug uptake
Flag rule - concentration at 4 h less than 10 µM flags yes; the remaining entries get no.

Problem: Below 10 µM on concentration at 4 h? Entry CC(C)CCC(c1ccc(C(C)(C)C(=O)O)cc1-c1ccc(C(F)(F)F)cc1)N1CCC(C(F)(F)F)CC1 (stereo unspecified)
Result: no

Problem: Below 10 µM on concentration at 4 h? Entry CC(C)CCC(c1ccc(C(CC(C)C)C(=O)O)cc1-c1ccc(C(F)(F)F)cc1)N1CCC(C(F)(F)F)CC1 (stereo unspecified)
Result: yes

Problem: Below 10 µM on concentration at 4 h? Entry O=C(O)Cc1ccc(C(CC2CCCCC2)N2CCC(C(F)(F)F)CC2)c(-c2ccc(C(F)(F)F)cc2)c1 (stereo unspecified)
Result: no

Problem: Below 10 µM on concentration at 4 h? Entry CC(C)CCC(c1ccc(C(C)C(=O)O)cc1-c1ccc(C(F)(F)F)cc1)N1CCC(C(F)(F)F)CC1 (stereo unspecified)
Result: no

Problem: Below 10 µM on concentration at 4 h? Entry CC(C)(C)CC(c1ccc(CC(=O)O)cc1-c1ccc(C(F)(F)F)cc1)N1CCC(C(F)(F)F)CC1 (racemic)
Result: no

---

- experiment: Clearance in dog at 0.5 mg/kg
- Type: ADME, organism-based, Canis lupus familiaris
- Set-up: dose 0.5 mg/kg
- experimental-conditions: in vivo
measured-attribute: clearance (mL/min/kg)
Numbers only; they are read as mL/min/kg.

Problem: Recorded clearance of CC(C)(C)CC(c1ccc(CC(=O)O)cc1-c1ccc(C(F)(F)F)cc1)N1CCC(C(F)(F)F)CC1 (racemic) , please.
Result: 0.6

---

- subject-of-test: Cytochrome P450 3A4 (Homo sapiens)
- Sequence (P08684 whole entry): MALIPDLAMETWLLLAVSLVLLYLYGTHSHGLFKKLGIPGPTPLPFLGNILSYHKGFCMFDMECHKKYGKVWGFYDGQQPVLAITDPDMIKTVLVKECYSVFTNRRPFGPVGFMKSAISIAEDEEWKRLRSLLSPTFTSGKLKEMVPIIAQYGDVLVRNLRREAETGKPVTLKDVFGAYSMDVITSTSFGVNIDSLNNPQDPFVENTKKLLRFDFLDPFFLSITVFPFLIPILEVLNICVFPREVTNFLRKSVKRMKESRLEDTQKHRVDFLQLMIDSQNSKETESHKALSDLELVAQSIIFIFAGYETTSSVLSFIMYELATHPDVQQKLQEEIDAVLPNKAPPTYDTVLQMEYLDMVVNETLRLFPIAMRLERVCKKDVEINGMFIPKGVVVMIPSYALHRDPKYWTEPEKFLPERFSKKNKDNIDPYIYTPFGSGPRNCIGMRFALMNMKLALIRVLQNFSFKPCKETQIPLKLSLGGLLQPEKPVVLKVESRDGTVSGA
measured-attribute: IC50

Problem: Param readout = IC50; param system = Cytochrome P450 3A4 (Homo sapiens); param query = CC(C)(C)CC(c1ccc(CC(=O)O)cc1-c1ccc(C(F)(F)F)cc1)N1CCC(C(F)(F)F)CC1 (racemic) ; response: value
Result: > 10 µM

---

- experiment: Half life in dog at 0.5 mg/kg
- Format: ADME, organism-based, Canis lupus familiaris
- Design: dose 0.5 mg/kg
- experimental-conditions: in vivo
measured-attribute: half-life (h)
Numbers only; they are read as h.

Problem: Recorded half-life of CC(C)(C)CC(c1ccc(CC(=O)O)cc1-c1ccc(C(F)(F)F)cc1)N1CCC(C(F)(F)F)CC1 (racemic) , please.
Result: 10.1

---

- experiment: Drug uptake in wild type CF1 mouse plasma at 50 mg/kg, po after 4 hrs
- Format: ADME, organism-based
- Design: dose 50 mg/kg, route oral
measured-attribute: concentration at 4 h (µM)
Numbers only; they are read as µM.

CC(C)CCC(c1ccc(CC(=O)O)cc1-c1ccc(C(F)(F)F)cc1)N1CCC(C(F)(F)F)CC1 (configuration not stated) : 32

Problem: Recorded concentration at 4 h of `CC(C)CCN(Cc1ccc(CC(=O)O)cc1-c1ccc(C(F)(F)F)cc1)c1ccc(C(F)(F)F)cc1` , please.
Result: 15

---

- experiment: Clearance in F344 rat at 2 mg/kg
- Format: ADME, organism-based
- Parameters: dose 2 mg/kg
- experimental-conditions: in vivo
measured-attribute: clearance (mL/min/kg)
Numbers only; they are read as mL/min/kg.

Problem: Recorded clearance of CC(C)(C)CC(c1ccc(CC(=O)O)cc1-c1ccc(C(F)(F)F)cc1)N1CCC(C(F)(F)F)CC1 (racemic) , please.
Result: 2.5

---

- experiment: Half life in wild type CF1 mouse
- Format: ADME, organism-based
- experimental-conditions: in vivo
measured-attribute: half-life (h)
Numbers only; they are read as h.

Problem: Recorded half-life of CC(C)CCC(c1ccc(CC(=O)O)cc1-c1ccc(C(F)(F)F)cc1)N1CCC(C(F)(F)F)CC1 (stereo unspecified) , please.
Result: 2.9

---

- experiment: Apparent permeability from apical to basolateral side in human Caco2 cells
- Assay type: ADME, cell-based
- experimental-conditions: caco-2
measured-attribute: Papp A→B (×10⁻⁶ cm/s)
Numbers only; they are read as ×10⁻⁶ cm/s.

Problem: Recorded Papp A→B of CC(C)(C)CC(c1ccc(CC(=O)O)cc1-c1ccc(C(F)(F)F)cc1)N1CCC(C(F)(F)F)CC1 (racemic) , please.
Result: 16

---

- Tested on: Brain
- experiment: Drug uptake in rat brain at 30 mg/kg, po after 4 hrs
- experimental-conditions: in vivo
measured-attribute: concentration (µM)
Numbers only; they are read as µM.

Problem: Recorded concentration of CC(C)(C)CC(c1ccc(CC(=O)O)cc1-c1ccc(C(F)(F)F)cc1)N1CCC(C(F)(F)F)CC1 (single isomer, unassigned; enantiomer 2) , please.
Result: 26

---

- subject-of-test: Cytochrome P450 2C9 (Homo sapiens)
- Sequence (P11712 whole entry): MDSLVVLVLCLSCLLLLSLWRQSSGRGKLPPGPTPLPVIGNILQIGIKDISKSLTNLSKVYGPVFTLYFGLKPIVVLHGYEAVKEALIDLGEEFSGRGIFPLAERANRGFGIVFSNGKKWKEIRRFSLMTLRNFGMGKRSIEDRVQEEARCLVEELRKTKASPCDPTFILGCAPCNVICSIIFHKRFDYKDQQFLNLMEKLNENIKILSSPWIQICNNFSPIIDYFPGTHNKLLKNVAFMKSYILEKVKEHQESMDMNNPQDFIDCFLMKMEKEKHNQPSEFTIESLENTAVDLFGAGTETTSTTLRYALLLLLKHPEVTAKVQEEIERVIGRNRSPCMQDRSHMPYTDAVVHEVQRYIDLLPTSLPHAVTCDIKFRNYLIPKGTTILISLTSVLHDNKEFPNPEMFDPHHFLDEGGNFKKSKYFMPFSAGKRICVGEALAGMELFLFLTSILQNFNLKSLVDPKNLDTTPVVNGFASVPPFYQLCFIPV
measured-attribute: IC50

Problem: Param readout = IC50; param system = Cytochrome P450 2C9 (Homo sapiens); param query = CC(C)(C)CC(c1ccc(CC(=O)O)cc1-c1ccc(C(F)(F)F)cc1)N1CCC(C(F)(F)F)CC1 (racemic) ; response: value
Result: > 10 µM

---

- experiment: Drug uptake in wild type CF1 mouse brain at 12.5 mg/kg, po after 4 hrs
- Assay type: ADME, organism-based
- Design: dose 12.5 mg/kg, route oral
- experimental-conditions: read-out: Drug uptake
measured-attribute: concentration at 4 h (µM)
Numbers only; they are read as µM.

Problem: Recorded concentration at 4 h of CC(C)(C)CC(c1ccc(CC(=O)O)cc1-c1ccc(C(F)(F)F)cc1)N1CCC(C(F)(F)F)CC1 (racemic) , please.
Result: 9

---

- experiment: Ratio of drug level in brain to plasma in wild type CF1 mouse at 30 mg/kg, po after 4 hrs
- Format: ADME, organism-based
- Parameters: dose 30 mg/kg, route oral
- experimental-conditions: read-out: BPR
measured-attribute: Kp at 4 h
Kindly provide the number alone.

Problem: Recorded Kp at 4 h of CC(C)(C)CC(c1ccc(CC(=O)O)cc1-c1ccc(C(F)(F)F)cc1)N1CCC(C(F)(F)F)CC1 (racemic) , please.
Result: 1

---

- experiment: Drug uptake in wild type CF1 mouse brain at 50 mg/kg, po after 4 hrs
- Type: ADME, organism-based
- Design: dose 50 mg/kg, route oral
- experimental-conditions: read-out: Drug uptake
Below, each entry is listed alongside its reported concentration at 4 h.

Worked examples, 3 compounds total:
CC(C)CCC(c1ccc(CC(=O)O)cc1-c1ccc(C(F)(F)F)cc1)N1CCC(C(F)(F)F)CC1 (centres undefined) : 17 µM
CC(C)CCN(Cc1ccc(CC(=O)O)cc1-c1ccc(C(F)(F)F)cc1)[C@H]1CC[C@H](C(C)(C)C)CC1 : 7 µM
CC(C)CCN(Cc1ccc(C(CC(C)C)C(=O)O)cc1-c1ccc(C(F)(F)F)cc1)[C@H]1CC[C@H](C(C)(C)C)CC1 (mixture of isomers) : 0.7 µM

Kindly consider the entry below.
Problem: Recorded concentration at 4 h of `CC(C)CCN(Cc1ccc(CC(=O)O)cc1-c1ccc(C(F)(F)F)cc1)c1ccc(C(F)(F)F)cc1` , please.
Result: 0.6 µM

---

- System: Mus musculus
- experiment: Inhibition of gamma-secretase-mediated cleavage of APP in wild type CF1 mouse brain assessed as inhibition of amyloid beta42 production at 30 mg/kg, po after 4 hrs by ELISA
- Assay type: functional
- experimental-conditions: Mus musculus, CF1, Brain, po, 4 h
Below, each entry is listed alongside its reported inhibition in vivo at 30 mg/kg.
Numbers only; they are read as %.

Worked examples, 4 compounds total:
O=C(O)Cc1ccc(C(CC2CCCCC2)N2CCC(C(F)(F)F)CC2)c(-c2ccc(C(F)(F)F)cc2)c1 (stereo not given) : 30
CC(C)CCC(c1ccc(C(C)(C)C(=O)O)cc1-c1ccc(C(F)(F)F)cc1)N1CCC(C(F)(F)F)CC1 (stereo not given) : 20
CC(C)CCC(c1ccc(C(CC(C)C)C(=O)O)cc1-c1ccc(C(F)(F)F)cc1)N1CCC(C(F)(F)F)CC1 (stereo not given) : 21
CC(C)CCC(c1ccc(C(C)C(=O)O)cc1-c1ccc(C(F)(F)F)cc1)N1CCC(C(F)(F)F)CC1 (stereo not given) : 35

Kindly consider the entry below.
Problem: Recorded inhibition in vivo at 30 mg/kg of O=C(O)Cc1ccc(C(C2CCCCC2)N2CCC(C(F)(F)F)CC2)c(-c2ccc(C(F)(F)F)cc2)c1 (stereo not given) , please.
Result: 15

---

- experiment: Clearance in wild type CF1 mouse
- Format: ADME, organism-based
- experimental-conditions: in vivo
measured-attribute: clearance (mL/min/kg)
Numbers only; they are read as mL/min/kg.

Problem: Recorded clearance of CC(C)CCC(c1ccc(CC(=O)O)cc1-c1ccc(C(F)(F)F)cc1)N1CCC(C(F)(F)F)CC1 (stereo unspecified) , please.
Result: 3.2
